# testedOn: T1, full length mouse DLL4 on overexpressing CHO or HEK293 cells (mouse, UniProt Q9JI71 27-686)
# T1 construct: whole, on cells; also called CHO-mDLL4; mDLL4
# measurementNotes: FMAT, hNotch1/Fc on CHO-mDLL4, periplasmic extract
# Text: All calculations are based on the FL1 total signal which comprises the average of the fluorescence per well times the number of counts per well.
# Lookup of reported FMAT mDLL4 % inhibition keyed by entry
Express your answer in %, writing the number without its unit.

Worked set:
{"binder": "DLLBII80E08 (VHH, tested as periplasmic extract; also called DLLBII80E8; not shown: C-terminal c-myc tag and His6 tag) VHH: EVQLVESGGGLVQAGGSLTLSCAASGGTFTTYAMGWFRQAPGKEREFVAAVSRFGVSWDYADSVKGRFTISRDNTANTLKLRMNSLKADDTAVYYCAAGGRSFLPFVPAYWGQGTQVTVSS", "testReadout": "FMAT mDLL4 % inhibition", "observedResult": 82}
{"binder": "DLLBII104C04 (VHH, tested as periplasmic extract; also called DLLBII104C4; not shown: C-terminal c-myc tag and His6 tag) VHH: EVQLVESGGGLVQAGGSLRLSCAAAGSTFSSYVMGWYRQAPGKQRELVAHISTRGITYYADSVKGRFTISRDNAKNTMYLQMNSLKPEDTAVYYCNTRRNFLSNYWGQGTQVTVSS", "testReadout": "FMAT mDLL4 % inhibition", "observedResult": 83}
{"binder": "DLLBII83G01 (VHH, tested as periplasmic extract; also called DLLBII83G1; not shown: C-terminal c-myc tag and His6 tag) VHH: EVQLVESGGGLVQAGGSLRLSCAASGRTFSNYIMGWFRQAPGKEREFVAGISRYADYTGYADSVKGRFTISRDNVKNTVYLRMNSLKPDDTAVYYCAANEGYCSGYGCYEDSGQYDYWGQGTQVTVSS", "testReadout": "FMAT mDLL4 % inhibition", "observedResult": 93}
{"binder": "DLLBII62C11 (VHH, not shown: C-terminal c-myc tag and His6 tag) VHH: EVQLMESGGGLVQPGGSLRLSCVAAGFTFSNYYMSWVRQAPGKGLEWVSVISPDGSNTYYADTVKGRFTISRGNAKNTLFLQMTGLKSEDAAVYYCARGSGSWGVHGQGTQVTVSS", "testReadout": "FMAT mDLL4 % inhibition", "observedResult": 71}
{"binder": "DLLBII96C03 (VHH, also called DLLBII96C3; DLLBII96CO3; not shown: C-terminal c-myc tag and His6 tag) VHH: EVQLVESGGGLVQPGGSLRLSCAASGFTFGNYDMSWVRQAPGKGPEWVSAINSGGGDTYYADSVKGRFTISRDNAKNTLYLQMNSLKPEDTAVYYCATPRGWGPTGPHEYGYWGQGTQVTVSS", "testReadout": "FMAT mDLL4 % inhibition", "observedResult": 83}
{"binder": "DLLBII101G08 (VHH, also called DLLBII101G8; 101G8; not shown: C-terminal c-myc tag and His6 tag) VHH: EVQLVESGGGLVQAGGSLRLSCAASGRTFSSYAMAWFRQAPGKEREFVAAIRWSGGTAYYADSVQGRFTISRDNAKNTVYLQMNSLKPEDTAVYYCANRAADTRLGPYEYDYWGQGTQVTVSS", "testReadout": "FMAT mDLL4 % inhibition", "observedResult": 92}

Data request, read-out FMAT mDLL4 % inhibition, for DLLBII101F01 (VHH, tested as periplasmic extract; also called DLLBII101F1; not shown: C-terminal c-myc tag and His6 tag) VHH: EVQLVESGGGLVQAGGSLRLSCAASGRTFSNYAMGWFRQAPGKEREFVAAISWSGGDTYYADSVKGRFTISRDNAKNTVCLQMNSLKPEDTAVYYCAASFQSGAAPGANFYDYWGQGTQVTVSS
78

// returns reported FMAT mDLL4 % inhibition for input DLLBII61F07 (VHH, tested as periplasmic extract; also called DLLBII61F7; not shown: C-terminal c-myc tag and His6 tag) VHH: EVQLVESGGGLVQAGGSLRLSCAASGRTFSRYAMGWFRQAPGKEREFVAAINWSGGSTYYADSVKGRFTISRDNAKNTVYLQMNSLKPEDTAVYDCAASNYYSVYDDRPVMDYWGQGTQVTVSS
77
